All values here come from patent US20260258115A1.

Consider the following binders and their measured Kd readings.
molecular target: T1, RSV postfusion F (postF), subtype B (respiratory syncytial virus subtype B); assay: BLI, IgG
T1 construct: also called Postfusion subtype B
T1 sequence (P13843 26-109, chain 1 of 2): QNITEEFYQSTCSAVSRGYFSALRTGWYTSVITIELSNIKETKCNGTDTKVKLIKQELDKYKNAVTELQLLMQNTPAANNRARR
T1 sequence (P13843 147-513, chain 2 of 2): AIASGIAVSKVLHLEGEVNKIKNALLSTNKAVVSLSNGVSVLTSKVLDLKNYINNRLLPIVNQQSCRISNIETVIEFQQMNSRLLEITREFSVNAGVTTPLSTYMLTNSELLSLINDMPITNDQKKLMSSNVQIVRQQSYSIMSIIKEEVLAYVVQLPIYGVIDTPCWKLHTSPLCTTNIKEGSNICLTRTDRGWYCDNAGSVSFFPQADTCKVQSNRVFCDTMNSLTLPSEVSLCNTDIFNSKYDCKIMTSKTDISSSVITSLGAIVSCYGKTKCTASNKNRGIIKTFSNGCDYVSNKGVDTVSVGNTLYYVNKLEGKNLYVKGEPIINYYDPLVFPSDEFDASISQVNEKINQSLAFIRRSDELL
Write the value in nM as a bare number.

Reference set (4 entries):
- binder: "ADI-25575 (antibody, V domains shown, full-length IgG) VH: EVQLVESGAEVKKPGASVKVSCKASGYTFTSYYMHWVRQAPGQGLEWMGIINPSGGSTSYAQKFQGRVTMTRDTSTSTVYMELSSLRSEDTAVYYCARGPYDSSGYCDYWGQGTLVTVSS VL: SYELTQPPSVSVAPGKTARITCGGNNIGSKSVHWYQQKPGQAPVLVVYDDSDRPSGIPERFSGSNSGNTATLTISRVEAGDEADYYCQVWDSSSDQVFGGGTKLTVL"
  measurement: 39.6
- binder: "ADI-22760 (antibody, V domains shown, full-length IgG; also called Ab 340) VH: EVQLVESGGGLVQPGRSLRLSCVASGFTFDDYAMHWVRQAPGKGLEWVSGINWNSGGIGYADSVKGRFTISRDNTKNSLYLQMNSLRAEDTALYYCAKDGSALMGYGVEVWGQGTTVTVSS VL: SYELTQPPSASGTPGQRVTISCSGSNSNIGNNYVYWYQQLPGTAPKLLIYRNNQWPSGVPDRFSASKSGTSASLAISGLRSEDEADYYCASWDDSLSALVFGGGTKLTVL"
  measurement: 1.25
- binder: "ADI-19484 (antibody, V domains shown, full-length IgG) VH: QVQLQESGSGLVKPSQTLSLTCVVSGGSISSGGNSWSWIRQPPGKGLEWIGYIYDSGNTYYNPSLKSRVTISVDRSKNQFSLKVSSVTAADTAVYYCARGAETGTTGWYDPWGQGTLVTVSS VL: DIRLTQSPSSLSASVGDRVTITCRASQTISSYLNWYQQKPGKAPRLLIYAASSLQSGVPSRFSGSGSGTDFTLTISSLQPEDFATYYCQQSYGTPRTFGQGTKVEIK"
  measurement: 0.355
- binder: "ADI-14351 (antibody, V domains shown, full-length IgG; also called Ab 19) VH: EVQLLESGGGLVQPGGSLRLSCSASGFTFSTYWMHWVRQAPGKGLVWVSRINGDGNDRNYADSVKGRFTISRDNAKNTVYLQMNSLRAEDTAVYYCARGGATGDFYFGMDVWGQGTTVTVSS VL: SYELTQPPSVSVAPGKTAKITCGGNNIGTKSVHWYQQKPGQAPVLVIYYDTDRPSGIPERFSGSNSGNTATLTISRVEAGDEADYYCQVWDSSNSDHVGVFGGGTQLTVL"
  measurement: 0.215

Now for another entry.
Exercise: Record request: Kd value, item ADI-25587 (antibody, V domains shown, full-length IgG) VH: QVQLVESGGGVVQPGRSLRLSCAASGFTFSSYGMHWVRQAPGKGLEWVAVIWYDGSNKYYADSVKGRFTISRDNSKNTLYLQMNSLRAEDTAVYYCARDSTYSEAFDIWGQGTMVTVSS VL: QSVLIQPASVSGSPGQSITISCTGTSSDVGGYNYVSWYQQHPGKAPKLMIYDVSNRPSGVSNRFSGSKSGNTASLTISGLQAEDEADYYCSSYTSSSTWVFGGGTKVTVL
Key: 7.93
